In this section, each of the molecules is paired with its reported TGI.
- Test system: A498 renal
- protocol_summary: NCI tumour cell line growth inhibition, 48 h
experimental_endpoint: TGI (µM)

{"columns": ["molecule", "u", "censoring_qualifier", "measured_value"],
 "data": [
  ["CCC(C)(C)c1cc(O)c(C(C)(C)CC)cc1O", "µM", "=", 8.5],
  ["CC1(C)NC(=O)N(CCCCCCN2C(=O)NC(C)(C)C2=O)C1=O", "µM", ">", 100],
  ["CNS(=O)(=O)OCC1OC(n2cnc3cncnc32)C(O)C1O (stereo not given)", "µM", ">", 100],
  ["COc1ccc2c(c1)CC[C@@H]1C2CC[C@]2(C)C(=O)N(CCN(C)C)C(=O)CC12 (stereo not given in full)", "µM", ">", 100],
  ["Cc1cc2c(c(C(=O)NCC(=O)N[C@@H](C)C(=O)OCc3ccccc3)c1)Oc1c(cc(C)cc1C(=O)NCC(=O)N[C@@H](C)C(=O)OCc1ccccc1)S2", "µM", ">", 100],
  ["CC(C)NC(=O)OCc1c(COC(=O)NC(C)C)c(-c2ccc[n+](COC(=O)Cc3ccccc3)c2)n2c1CCC2", "µM", "=", 44.7],
  ["CC(=O)OCC1OC(N2C(=O)NC(=O)C3C=C4CCCCC4=CC32)CC1OC(C)=O (stereo not given)", "µM", ">", 100],
  ["CCCCCCC1N=C(N)N=C(N)N1c1cccc(Cl)c1 (stereo not given)", "µM", "=", 15.6],
  ["CC(=O)OCC1OC(n2cnc3nc(Br)[nH]c(=O)c32)C(OC(C)=O)C1OC(C)=O (stereo not given)", "µM", ">", 100],
  ["CC1(C)CC(=O)C=C(/C=C/Sc2c(Cl)c(Cl)nc(Cl)c2Cl)C1", "µM", "=", 36.6],
  ["O=C(Cc1ccccc1[N+](=O)[O-])C(CO)c1ccccc1[N+](=O)[O-] (stereo not given)", "µM", ">", 100],
  ["COC(=O)CNC(=O)C(Cc1ccccc1)NC(=O)c1ccc(-c2ccc(Cl)cc2Cl)o1 (stereo not given)", "µM", "=", 38.8],
  ["C/C(CCC(=O)O)=N/Nc1ccc([N+](=O)[O-])cc1", "µM", ">", 100],
  ["Cc1ccc([P+](Cc2ccccc2)(c2ccccc2)c2ccccc2)cc1", "µM", "=", 7.15],
  ["O=C1/C(=C/c2ccc([N+](=O)[O-])s2)Oc2cc(Cl)ccc21", "µM", ">", 85.2],
  ["CN1CCN(Cc2ccc(NC(=O)c3cncc(C#Cc4c(N)ncc5ccc(C#N)cc45)c3)cc2C(F)(F)F)CC1", "µM", "=", 6.35],
  ["COC(=O)Nc1nc2ccc(S(=O)(=O)Nc3ccccn3)cc2[nH]1", "µM", ">", 100],
  ["CSc1cc(Cl)c(C)cc1S(=O)(=O)NC(=O)NNc1ccc(F)cc1", "µM", ">", 100],
  ["Cn1cnc(N2CCCC2)c(C#N)c1=S", "µM", ">", 100],
  ["COC(=O)C12CCC(C)(C)CC1C1=CCC3C4(C)CC(O)C(O)C(C)(C(=O)OC)C4CCC3(C)C1(CO)CC2 (stereo not given)", "µM", "=", 33.2]
]}
